- Test system: CAKI-1 renal
- PROTOCOL: NCI-60 one-dose screen, 48 h (100 = growth as untreated, 0 = no growth, -100 = all killed)
- PARTICULARS: 10 µM unless noted
Compounds without any hit were thinned out: in the full panel of roughly 83,000, 20% have a hit.
Catalogue of compounds with associated growth
Number in %, nothing else.

Take a look at these entries with their results.
Req: Given the entry CC(C)C(C(=O)O)n1c(O)c(/C=C2/C=c3cc4c(cc3=NC2=O)OCO4)sc1=S (centres undefined) , what growth was observed with CAKI-1 renal?
Resp: 93

Req: Give the reported growth for O=C(O)c1cccc(-c2ccc(/C=N/NC(=O)c3[nH]c4ccc(Br)cc4c3-c3ccccc3)o2)c1 (system: CAKI-1 renal).
Resp: 96.4

Req: Look up growth with CAKI-1 renal for this compound: Cc1cc(C)n(-c2ccc3nnc(-c4ccccc4)n3n2)n1
Resp: 74.7

Req: Can you look up growth on CAKI-1 renal for COc1ccc(C(=O)/C=C/c2cccc3ccccc23)cc1S(N)(=O)=O ?
Resp: 13.9

Req: Record lookup: for CAKI-1 renal, what growth belongs to COc1cc2oc(-c3cccc(NC(=O)[C@H](Cc4ccccc4)NC(=O)OC(C)(C)C)c3)cc(=O)c2c(OC)c1OC ?
Resp: 31.7

New cases:
Req: Form entry - test system: CAKI-1 renal; read-out: growth; compound: Cc1ccc(-n2c(-c3cc4ccccc4nc3Cl)noc2=O)cc1
Resp: 49.8

Req: Give CAKI-1 renal growth for CSc1ccccc1NC(=O)c1ccc2nn(/C(C#N)=C/c3ccccn3)nc2c1
Resp: -87.3

Req: Return growth measured with CAKI-1 renal given this compound: O=c1cc(-c2ccccc2)oc2cc(OCCCC[P+](c3ccccc3)(c3ccccc3)c3ccccc3)cc(O)c12
Resp: -97.1

Req: Form field - read-out: growth; system: CAKI-1 renal; submitted item: COc1cc(OC)c2c3nc4cc(C)c(C)cc4nc3n(CCN(C)C)c2c1
Resp: 50.5

Req: Lookup: growth / CAKI-1 renal / COc1ccc(C(=O)/C=C/c2cccnc2)cc1S(N)(=O)=O
Resp: 52.6

Req: Form field: growth recorded for COc1ccc(C(=O)/C=C/c2ccccc2Br)cc1S(N)(=O)=O with CAKI-1 renal (enter value)
Resp: 11.8

Req: Give CAKI-1 renal growth for Cn1cc(-c2cc3nc(-c4c[nH]c5ccc(Cl)cc45)cc(N)n3n2)c2ccccc21
Resp: -94.6

Req: Tell me reported growth for C#CCOc1cc(N(CC)CC)ccc1C(C(=O)NC(C)(C)C)N(C(=O)C1CCc2cc(F)ccc2O1)c1ccc(F)cc1 (centres undefined) , tested with CAKI-1 renal.
Resp: 30.7

Req: Requested read-out growth, target or system CAKI-1 renal, entry CC(=O)Nc1cccc(Nc2nc(N[C@H]3CCCc4ccccc43)c3ccccc3n2)c1
Resp: 89.5

* * *

Quick list: growth per entry.
- Tested on: OVCAR-5 ovarian
- PROTOCOL: NCI-60 one-dose screen, 48 h (100 = growth as untreated, 0 = no growth, -100 = all killed)
- PARTICULARS: 10 µM unless noted
About 83,000 compounds went through this panel and 20% of them were active in at least one assay; those are over-represented in the sample as a whole.
Please respond with the number in % and leave the unit unwritten.

Req: Dear colleague, I am looking for the recorded growth of the following compound: O=C(/C=C/c1ccc(O)c(O)c1)NC1CCOC1O (centres undefined)
Resp: 114

Req: Return reported growth; argument: CC1=C(C(=O)OCc2ccccc2)C(c2ccc(-n3cncn3)cc2)n2c(nc3ccccc32)N1 (centres undefined)
Resp: 79.3

Req: Field request: growth | item: COc1ccc2[nH]c(O)c(N=NC(=O)COc3ccc(NC(=O)Nc4ccccc4)cc3)c2c1
Resp: 72.3

Req: Entry COc1ccc(C2=NN(c3ccccc3)C(c3ccc(OC)c(OCc4ccccc4)c3)C2)cc1OC (centres undefined) has what growth?
Resp: 110

* * *

- Tested on: HCC-2998 colon
- PROTOCOL: NCI-60 one-dose screen, 48 h (100 = growth as untreated, 0 = no growth, -100 = all killed)
- PARTICULARS: 10 µM unless noted
- Experimental: Growth inhibition of the HCC-2998 human tumor cell line is measured as a screen for anti-cancer activity. Cells are grown in 96 well plates and exposed to the test compound for 48 hours. Compounds are tested at a single concentration, which is 10^-5 M for most compounds. The reported endpoint is percent growth (GI% or GIPRCNT), where numbers from 0 - 100% represent growth inhibition, and numbers from -100% - 0 represent cell death. For example, a value of 40 represents 60% growth inhibition. […]
The panel holds about 83,000 compounds, 20% with a hit somewhere; the sample as a whole holds those more often. Calls of active or inactive are those of the source. The calls were made as follows: active = growth percent below 10; inactive = the rest.
VALUE_KIND: growth

Req: What measured growth goes with CC1=C(C(=O)OCc2ccccc2)C(c2c(O)cc(O)cc2O)n2c(nc3ccccc32)N1 (configuration not stated) ?
Resp: 86.4% (inactive)

Others:
Req: # query: growth of entry C=Cn1cc(C(=O)O)c(=O)c2cc(F)c(N3CCN(c4nccc(-c5nccs5)n4)CC3)cc21
Resp: -62.1% (active)

Req: Query (molecule): CCOC(=O)/C=C/c1cccc2c1C(=O)NC(C)(c1cc3cc(Br)ccc3oc1=O)N2 (configuration not stated) ; field requested: growth
Resp: 68.8% (inactive)

Req: Form field: reported growth of COc1ccc2[nH]c(O)c(N=NC(=O)COc3ccc(NC(=O)Nc4ccccc4)cc3)c2c1
Resp: 34.9% (inactive)

Req: Consider the molecule shown here: COc1c(F)ccc(C(=O)Nc2ccc3nc(NC(=O)C4CCCN(S(=O)(=O)c5ccc(C(F)(F)F)cc5)C4)sc3c2)c1F (configuration not stated) What is its recorded growth?
Resp: 99.2% (inactive)

Req: Any idea what growth was measured for Clc1cccc(N/N=C/c2c[nH]c3ccc(Br)cc23)n1 ?
Resp: -9.69% (active)

Req: Please give the measured growth for this molecule: CN(C)c1ccnc(CNCCSC2(c3ccccc3)c3ccccc3C=Cc3ccccc32)c1
Resp: -77.3% (active)

Req: Item under review: COC(=O)/C=C/c1cccc2c1C(=O)NC(C)(c1cc3ccccc3oc1=O)N2 (configuration not stated) . Reported growth?
Resp: 74.4% (inactive)

* * *

- Test system: NCI/ADR-RES ovarian
- PROTOCOL: NCI-60 one-dose screen, 48 h (100 = growth as untreated, 0 = no growth, -100 = all killed)
- PARTICULARS: 10 µM unless noted
Compounds without any hit were thinned out: in the full panel of roughly 83,000, 20% have a hit.
Listed below: growth values for each entry.
# unit: % | format: bare number

Req: So what's the measured growth for this one? CCCCn1c(O)c(N=Nc2nc(-c3cc4ccccc4oc3=O)cs2)c2cc(Br)ccc21
Resp: 102

Req: Which measured growth value corresponds to O=c1oc2ccccc2cc1-c1csc(N2N=C(c3ccccc3)CC2c2ccc(N3CCOCC3)cc2)n1 (stereo not drawn) ?
Resp: 105

Req: Name the reported growth value associated with the compound Cc1cnc(C(=O)NNc2nc3cc(F)ccc3n3c(C(=O)N4CC5CC(C4)N5)ccc23)cn1
Resp: 67

Req: What does the record list as growth for C#CCOc1cc(N(CC)CC)ccc1C(C(=O)NC(C)(C)C)N(C(=O)C1CCc2cc(F)ccc2O1)c1cc(C)cc(C)c1 (stereo not drawn) ?
Resp: 41.9

Req: Would you mind telling me what growth value was observed for Cc1ccc2c(c1)nc(-c1ccccc1)n2CC(=O)N=Nc1c(O)[nH]c2ccc(Br)cc12 ?
Resp: -69.6

***
Req: For the compound CC1[C@H]2[C@H](C[C@H]3[C@@H]4CC=C5c6sc(Nc7ccccc7F)nc6CC[C@]5(C)[C@H]4CC[C@@]32C)O[C@]12CC[C@@H](C)CO2 (stereo partly drawn) , what growth is on record?
Resp: -33.9

Req: Requested field: growth. Item: COc1cc2c(c(OC)c1OC)C(=O)CC(c1cccc(NC(=O)c3cccc(NC(=O)[C@H](C)NC(=O)OC(C)(C)C)c3)c1)O2 (stereo partly drawn)
Resp: 80

Req: Consider the compound O=C(/C=C/c1cccc(OCc2ccc(F)cc2)c1)c1nc2ccccc2[nH]1 and give its measured growth.
Resp: 72.5

Req: Any idea what growth was measured for COc1ccc(/C=C/c2nc3ccccc3nc2Nc2cccc(C)c2)cc1 ?
Resp: 105

* * *

- Tested on: SK-MEL-2 melanoma
- PROTOCOL: NCI-60 one-dose screen, 48 h (100 = growth as untreated, 0 = no growth, -100 = all killed)
- PARTICULARS: 10 µM unless noted
This is part of a sample that, as a whole, favours compounds with a hit. Of some 83,000 tested, about 20% had one in any assay.
Parameter growth: see the listing below.
Numbers only; they are read as %.

Req: # growth lookup, item COc1ccc(/C=N/NC(=O)Cn2nc(Cc3ccc(OC)cc3)c3onc(C)c3c2=O)cc1
Resp: 78.9

Req: growth lookup needed for COc1cccc(/C=C/c2nc3ccccc3c(=O)n2CC(=O)Nc2ccc(Cl)cc2)c1 , thanks.
Resp: 111

Req: Looking for the measured growth of O=C1/C(=C/C2=Cc3ccccc3OC2)SC(=S)N1c1ccccc1F , can you help?
Resp: 107

Req: May I ask what growth has been recorded for Clc1ccc(-c2ccc(OCCCN3CCN(c4ccncc4)CC3)cc2)cc1 ?
Resp: 100

Req: Suppose we examine the compound O=S(=O)(Nc1cccc(-n2cnc3cc(-c4ccc(O)cc4)ccc32)c1)C1CC1 ; what growth value has been reported?
Resp: 51.7

Req: Can you look up the measured growth of COC(OC)C1=C(C)OC(N)=C(C#N)C12C(=O)Nc1ccccc12 (stereo unspecified) for me?
Resp: 96.2

More entries:
Req: Which value of growth has been reported for CN(C)CCOc1ccc(C(=O)C2[C@H](c3ccc(Cl)cc3)[C@@H](c3ccccc3)NC23C(=O)Nc2ccccc23)cc1 (stereo partly specified) in the records?
Resp: 112

Req: Look at this compound and give its reported growth. COc1ccc(C(=O)/C=C/c2ccc(OCc3ccc(F)cc3)c(OC)c2)cc1OC
Resp: 52.9

Req: Report growth for CCCCn1c(O)c(N=Nc2nc(-c3cc4ccccc4oc3=O)cs2)c2cc(Br)ccc21 please.
Resp: 116

Req: GET /values?readout=growth&item= O=C(NN1C(=O)/C(=C/C=C/c2ccc([N+](=O)[O-])o2)SC1=S)c1cccc(O)c1
Resp: -88.2

Req: Which measured growth value corresponds to CN(C)c1nc(NCCNS(=O)(=O)c2ccc(C(=O)/C=C/c3ccc(Cl)cc3)cc2)nc(Nc2ccc(F)cc2)n1 ?
Resp: -56.5
